system: MDA-MB-468 breast; test: NCI-60 one-dose screen, 48 h (100 = growth as untreated, 0 = no growth, -100 = all killed); settings: 10 µM unless noted
The panel holds about 83,000 compounds, 20% with a hit somewhere; the sample as a whole holds those more often.

{"columns": ["Molecule", "Study target", "growth [%]"],
 "data": [
  ["CC1CN1CCCCN1CC1C (centres undefined)", "MDA-MB-468 breast", 101],
  ["CC12CCC3C4CCC(=O)C=C4CCC3C1CC1CC(=O)OC12 (centres undefined)", "MDA-MB-468 breast", 102],
  ["ClC1OC(Cl)(Cl)C(Cl)(Cl)OC1(Cl)Cl (centres undefined)", "MDA-MB-468 breast", 105],
  ["COc1cc2c(c(OC)c1OC)-c1ccc(O)c(=O)cc1[C@@H](NC(C)=O)CC2", "MDA-MB-468 breast", 62.8]
]}

----------
system: HL-60(TB) leukemia; experiment: NCI-60 one-dose screen, 48 h (100 = growth as untreated, 0 = no growth, -100 = all killed); settings: 10 µM unless noted
Compounds without any hit were thinned out: in the full panel of roughly 83,000, 20% have a hit.
Experimental readout: growth (%)

{"columns": ["Compound", "Study target", "Experimental readout", "Units label", "Value measured"],
 "data": [
  ["Cn1cc(-c2nnc(N)nc2-c2c[nH]c3ccc(F)cc23)c2cccnc21", "HL-60(TB) leukemia", "growth", "%", 10.2],
  ["CO[C@H]1CSS[C@@H]1Cn1nc(-c2ccc(Oc3ccccc3)cc2)c2c(N)ncnc21", "HL-60(TB) leukemia", "growth", "%", 8.96],
  ["N=C1N=C(SCc2nc3ccccc3[nH]2)NC(=O)/C1=C/c1ccc(Cl)cc1", "HL-60(TB) leukemia", "growth", "%", 102],
  ["Cc1noc2c(Cc3ccc([N+](=O)[O-])cc3)nn(CC(=O)N/N=C/c3ccc(Br)cc3)c(=O)c12", "HL-60(TB) leukemia", "growth", "%", 95.4],
  ["CCCn1c(=O)c2[nH]c(-c3ccc(OCc4nc5ccc(C(F)(F)F)cc5[nH]4)cc3)nc2n(CCC)c1=O", "HL-60(TB) leukemia", "growth", "%", 55.9],
  ["COc1ccc(-c2ccc(/C=N/NC(=O)c3[nH]c4ccc(Br)cc4c3-c3ccccc3)o2)cc1", "HL-60(TB) leukemia", "growth", "%", 6.17],
  ["C[C@H]1[C@H](OC(=O)CCC(=O)Nc2cnccn2)O[C@@H]2OC3(C)CC[C@H]4[C@H](C)CC[C@@H]1[C@@]24OO3", "HL-60(TB) leukemia", "growth", "%", 0.224],
  ["Cc1ccc2c(c1)nc(-c1ccccc1)n2CC(=O)N=Nc1c(O)[nH]c2ccc(Cl)cc12", "HL-60(TB) leukemia", "growth", "%", 46.2],
  ["Oc1ccc(Cl)c(Nc2nc(SCCN3CCOCC3)nc3c2cnn3CC(Cl)c2ccc(Br)cc2)c1 (stereo not given)", "HL-60(TB) leukemia", "growth", "%", -36.2],
  ["NNc1ncnc2sc3c(c12)CCN(Cc1ccccc1)C3", "HL-60(TB) leukemia", "growth", "%", 18.8]
]}

----------
tested on: MALME-3M melanoma; test: NCI-60 one-dose screen, 48 h (100 = growth as untreated, 0 = no growth, -100 = all killed); details: 10 µM
About 83,000 compounds went through this panel and 20% of them were active in at least one assay; those are over-represented in the sample as a whole.
Category scheme (growth): band 1 (below -80%), band 2 (-80% to below 30%), band 3 (30% or more)

{"columns": ["Compound", "Study target", "Group label"],
 "data": [
  ["CC12CCC3(CCC(=O)NCCCNc4ccnc5cc(Cl)ccc45)[C@@](C)(OO[C@]3(C)O1)O2", "MALME-3M melanoma", "band 2"],
  ["CC(=C\\C(=O)Oc1ccc2c3c1OC1C(O)CCC4(O)C(C2)N(CC2CCC2)CCC314)/C=C1\\CCCc2ccccc21 (centres undefined)", "MALME-3M melanoma", "band 3"],
  ["COc1cc2cc(C(=O)N3C[C@@H](CCl)c4c3cc(OC(=O)N3CCN(C)[C@@H]5CSSC[C@H]53)c3ccccc43)[nH]c2c(OC)c1OC", "MALME-3M melanoma", "band 1"],
  ["CCOC(=O)C1=C(Nc2ccccc2)C(=O)OC12C(=O)Nc1ccccc12 (centres undefined)", "MALME-3M melanoma", "band 3"],
  ["CC1=C(CCC=NNC(N)=O)C2=C(C)C3(CC3)[C@@](C)(O)C(=O)C2=C1", "MALME-3M melanoma", "band 1"],
  ["O=C(/C=C/c1ccc(Cl)cc1Cl)c1nc2ccccc2n1Cc1ccc(F)cc1", "MALME-3M melanoma", "band 3"],
  ["CC[C@]12C=CCN3CC[C@@]4(c5ccc(OC)cc5N(C)[C@H]4[C@@](O)(C(=O)OC)[C@@H]1OC(=O)CCC[P+](c1ccc(F)cc1)(c1ccc(F)cc1)c1ccc(F)cc1)[C@@H]32", "MALME-3M melanoma", "band 2"],
  ["COC(=O)c1ccc(-n2cc(CCCN(CCNc3ccnc4cc(Cl)ccc34)C(=O)CCC(=O)O[C@@H]3O[C@@H]4OC5(C)CC[C@H]6[C@H](C)CC[C@@H]([C@H]3C)[C@@]46OO5)nn2)cc1", "MALME-3M melanoma", "band 2"]
]}

Reference source for all entries: PubChem BioAssay (NCI)
